System: HepG2
Assay: drug sensitivity score (DSS) for viability; higher = more toxic; extreme values may be limits of the assay
Conditions: 72 h
Consider the following compounds; for each one, report its drug sensitivity score.
Enter the number alone.

query: Any idea what drug sensitivity score was measured for `COc1ccc2cc(-c3cc(-c4cc(Cl)cc(Cl)c4)nn3[C@@H](C)c3ccc(C(=O)NCCC(=O)O)cc3)ccc2c1` ?
result: 0

query: And then `CCCc1cc(C)[nH]c(=O)c1CNC(=O)c1cc(-c2ccc(N3CCN(C(C)C)CC3)nc2)cc2c1cnn2C(C)C` , what is it?
result: 0

query: And then `Cc1cc(C(N)=O)ccc1-n1c(CCC(=O)O)ccc1-c1ccc(-n2ccnc2)cc1` , what is it?
result: 0

query: And then `CC(=O)NC1=NN(C(C)=O)[C@](C)(c2ccccc2)S1` , what is it?
result: 2.9

query: And then `CNC(=O)[C@@H](Cc1ccccc1)N(C)C(=O)[C@@H](Cc1ccc2ccccc2c1)N(C)C(=O)/C=C/CC(C)(C)N` , what is it?
result: 0.6

query: And then `Oc1nc(O)c2cn[nH]c2n1` , what is it?
result: 0

query: And then `N[C@H](C(=O)O)c1cc(O)no1` , what is it?
result: 0

query: And then `CCc1cccc(N(C)C(=N)Nc2cccc3ccccc23)c1` , what is it?
result: 0.1

query: And then `O=c1c2ccccc2nc2n1CCc1c-2[nH]c2ccccc12` , what is it?
result: 1.7

query: And then `O=[N+]([O-])c1cnc(Sc2nnc(O)n2-c2ccc3c(c2)OCCO3)s1` , what is it?
result: 9.8

query: And then `CCc1cc2c(s1)-n1c(C)nnc1CN=C2c1ccccc1Cl` , what is it?
result: 0

query: And then `C[C@H](NC(=O)/C(C#N)=C/c1cccc(Br)n1)c1ccccc1` , what is it?
result: 5.8

query: And then `COc1ccc(-c2oc3cc(OC)ccc3c2C(=O)c2ccc(C#N)cc2)cc1` , what is it?
result: 2

query: And then c1cnc2c([O][Ga]([O]c3cccc4cccnc34)[O]c3cccc4cccnc34)cccc2c1 [gallium-triquinolin-8-olate] , what is it?
result: 5.8

query: And then COc1ccnc(C[S+]([O-])c2nc3cc(OC(F)F)ccc3[nH]2)c1OC (stereo not drawn) , what is it?
result: 0

query: And then `C=C1/C(=C\C=C2/CCC[C@]3(C)[C@@H]([C@H](C)CC[C@@H](O)C(C)C)CC[C@@H]23)C[C@@H](O)C[C@@H]1O` , what is it?
result: 0

query: And then `OCCN1CCN(CC/C=C2/c3ccccc3Sc3ccc(Cl)cc32)CC1` , what is it?
result: 1.8

query: And then `COc1cccc2cc(-c3nc([C@H]4CC[C@H](C(=O)O)CC4)n4ncnc(N)c34)[nH]c12` , what is it?
result: 9.9

====

Consider the following compounds; for each one, report its cell viability.
Test system: U2OS
Assay: cell viability relative to DMSO; higher = less toxic
Conditions: 72 h; 10 nM
The reply should be a number in %, with the unit left off.

query: Any idea what cell viability was measured for CCOC(=O)c1cnc2c(cnn2CC)c1NN=C(C)C [etazolate] ?
result: 94.7

query: And then `Nc1nc2cc(-c3ccc4ncc(C(=O)N5CCOCC5)n4c3)ccc2o1` , what is it?
result: 95.2

query: And then O=C(O[C@@H]1Cc2c(O)cc(O)cc2O[C@@H]1c1ccc(O)c(O)c1)c1cc(O)c(O)c(O)c1 [epicatechin-gallate-(-)] , what is it?
result: 97.5

query: And then `CC(=O)N1CCN(CCOc2ccc(C3CCN(C4=Nn5c(nnc5C(F)(F)F)CC4)CC3)cc2)CC1` , what is it?
result: 94

query: And then COc1cc(C(=O)NCc2ccc(OCCN(C)C)cc2)cc(OC)c1OC [trimethobenzamide] , what is it?
result: 93.8

query: And then `Cc1cc(C(N)=O)ccc1-n1c(CCC(=O)O)ccc1-c1ccc(-n2ccnc2)cc1` , what is it?
result: 103

query: And then `C[C@@H](O[C@H]1OCCN(Cc2nn[nH]c2CN(C)C)[C@H]1c1ccc(F)cc1)c1cc(C(F)(F)F)cc(C(F)(F)F)c1` , what is it?
result: 96.9

query: And then `O=c1n(CCCN2CCN(c3cccc(Cl)c3)CC2)nc2ccccn12` , what is it?
result: 104

Origin of values: the supplement of paper PMC13380429
